measuredTarget: T1, cell-bound human DR5 (Colo205 and other human cell lines) (human, UniProt O14763 56-440)
T1 construct: endogenous DR5 of the cell lines
assaySummary: FACS, periplasmic extract on Colo205 cells, anti-myc detection
Reported mean count fluorescence values for the following binders.
Lab note: write the figure by itself, no unit.

# count of solved cases: 3
11H6 (monomeric anti-DR5 NB construct) (VHH, llama VHH; periplasmic extract or purified monovalent material from E. coli; also called 11H6 parent; wild type 11H6; not shown: C-terminal c-myc tag and (His)6 tag coded by the vector) VHH: EVQLVESGGGLVQPGGSLRLSCAASGTFDKINNMGWYRQAPGKQRDLVAQITPGGITDYADSVKGRFTISRDNAKDTMYLQMNSLKPEDTAVYFCNAEILKRAYIDVYVNYWGQGTQVTVSS    723
10F1 (monomeric anti-DR5 NB construct) (VHH, llama VHH; periplasmic extract or purified monovalent material from E. coli; not shown: C-terminal c-myc tag and (His)6 tag coded by the vector) VHH: EVQLVESGGGLVQPGGSLRLSCAASGFTFSRYWMYWVRQAPGKGLEWVSAINSGGGDTYYRDSVRGRFTISRDNFKNTLYLQMNSLKSEDTAVYYCAKAEGPPTFSLIRTMTVDPGAQGTQVTVSS    125
11D1 (monomeric anti-DR5 NB construct) (VHH, llama VHH; periplasmic extract or purified monovalent material from E. coli; not shown: C-terminal c-myc tag and (His)6 tag coded by the vector) VHH: EVQLVESGGGLVQPGGSLRLSCAASGSIDSINNMGWYRQAPGKQRELVAEITPRGRTNYADSEKSRFTISRDNAKRTVNLQMNSLKPEDTAVYYCNAEVRERGTSWYRPDYWGQGTQVTVSS    919

May I ask what mean count fluorescence has been recorded for 7A12 (monomeric anti-DR5 NB construct) (VHH, llama VHH; periplasmic extract or purified monovalent material from E. coli; not shown: C-terminal c-myc tag and (His)6 tag coded by the vector) VHH: EVQLVESGGGLVQAGGSLRLSCAASGRTFSNYAMGWFRQAPGKEREFVAALNWSGGSTYYVDSVKGRFTISRDNAKNTVYLQMNSLKPEDTAVYYCAAAGSFSLGGRPYGDDYWGKGTLVTVSS ?
1100

Requested field: mean count fluorescence. Item: 4E6 (monomeric anti-DR5 NB construct) (VHH, llama VHH; periplasmic extract or purified monovalent material from E. coli; also called 4E6 parent; wild type 4E6; not shown: C-terminal c-myc tag and (His)6 tag coded by the vector) VHH: EVQLVESGGGSVQAGDSLRLSCAASGRTFGSIRVGWFRQTPGKEREFVAAINRNDGTTYYADSVKGRFTISRDNAKNTVYMQMASLKPEDTAVYYCAAGLQYNRSADRVPVGAVYWGQGTQVTVSS
972

Source of measurements: patent US20150259426A1
